Assay: Inhibition of PGPH activity of rabbit 26S proteasome
Parameters: species or system Oryctolagus cuniculus
READOUT_LABEL: pIC50
Remember the convention: pIC50 equals -log10 of concentration in molar.

Worked examples follow.
>>> number("Cc1cc(NS(=O)(=O)c2ccc(NC3=C(Cl)C(=O)c4ccccc4C3=O)cc2)no1")
4.78
>>> number("Cc1nnc(NS(=O)(=O)c2ccc(NC3=C(Cl)C(=O)c4ccccc4C3=O)cc2)s1")
4.87
>>> number("COc1ccccc1NS(=O)(=O)c1ccc(NC2=C(Cl)C(=O)c3ccccc3C2=O)cc1")
4.31

Query string: Fill in the blank: the reported pIC50 of `COc1ccc(NS(=O)(=O)c2ccc(NC3=C(Cl)C(=O)c4ccccc4C3=O)cc2OC)cc1` is ____.
Result string: 4.46

----------
Reported IC50 values are given for each entry in this list.
Experiment: Inhibition of PGPH activity of rabbit 26S proteasome
Set-up: species or system Oryctolagus cuniculus
Please respond with the number in µM and leave the unit unwritten.

Worked examples follow.
>>> number("O=C1C(Cl)=C(Nc2ccc(S(=O)(=O)Nc3ccnn3-c3ccccc3)cc2)C(=O)c2ccccc21")
25.6
>>> number("O=C1C(Cl)=C(Nc2ccc(S(=O)(=O)Nc3nccs3)cc2)C(=O)c2ccccc21")
14.3

Now let's try a different one.
Query string: Fill in the blank: the reported IC50 of `O=C1C(Cl)=C(Nc2ccc(S(=O)(=O)Nc3ccccn3)cc2)C(=O)c2ccccc21` is ____.
Result string: 4.5

----------
Test: Inhibition of PGPH activity of rabbit 26S proteasome
Set-up: species or system Oryctolagus cuniculus
Reported log10 of IC50 values are given for each entry in this list.
Transform log10 | Measure IC50 | Unit µM

Worked examples follow.
>>> number("COc1cccc(NS(=O)(=O)c2ccc(NC3=C(Cl)C(=O)c4ccccc4C3=O)cc2)c1")
1.64
>>> number("COc1cc(NC2=C(Cl)C(=O)c3ccccc3C2=O)ccc1S(=O)(=O)Nc1ccccc1C")
1.48
>>> number("CC(C)C[C@H](NC(=O)[C@H](Cc1ccccc1)NC(=O)c1cnccn1)B(O)O")
-0.32
>>> number("Cc1cc(C)nc(NS(=O)(=O)c2ccc(NC3=C(Cl)C(=O)c4ccccc4C3=O)cc2)n1")
1.70

Now let's try a different one.
Query string: Fill in the blank: the reported log10 of IC50 of `Cc1noc(NS(=O)(=O)c2ccc(NC3=C(Cl)C(=O)c4ccccc4C3=O)cc2)c1C` is ____.
Result string: 1.33

----------
Test: Inhibition of trypsin like proteolytic activity of rabbit 26S proteasome
Set-up: species or system Oryctolagus cuniculus
READOUT_LABEL: IC50 (µM)
Please respond with the number in µM and leave the unit unwritten.

>>> number("CC(C)C[C@H](NC(=O)[C@H](Cc1ccccc1)NC(=O)c1cnccn1)B(O)O")
7

Query string: Fill in the blank: the reported IC50 of `Cc1noc(NS(=O)(=O)c2ccc(NC3=C(Cl)C(=O)c4ccccc4C3=O)cc2)c1C` is ____.
Result string: 9.25

Query string: Fill in the blank: the reported IC50 of `COc1ccccc1NS(=O)(=O)c1ccc(NC2=C(Cl)C(=O)c3ccccc3C2=O)cc1` is ____.
Result string: 24.7

Query string: Fill in the blank: the reported IC50 of `O=C1C(Cl)=C(Nc2ccc(S(=O)(=O)Nc3nccs3)cc2)C(=O)c2ccccc21` is ____.
Result string: 8.15

Query string: Fill in the blank: the reported IC50 of `O=C1C(Cl)=C(Nc2ccc(S(=O)(=O)Nc3ccnn3-c3ccccc3)cc2)C(=O)c2ccccc21` is ____.
Result string: 20.7

Query string: Fill in the blank: the reported IC50 of `O=C1C(Cl)=C(Nc2ccc(S(=O)(=O)Nc3ccccn3)cc2)C(=O)c2ccccc21` is ____.
Result string: 4.5

----------
Assay: Inhibition of chymotrypsin like proteolytic activity of rabbit 26S proteasome
Set-up: species or system Oryctolagus cuniculus
The label is Satisfied for IC50 below 10 µM and Not satisfied for IC50 equal to or exceeding 10 µM.

>>> assigned_label("O=C1C(Cl)=C(Nc2ccc(S(=O)(=O)Nc3ccnn3-c3ccccc3)cc2)C(=O)c2ccccc21")
"Not satisfied"
>>> assigned_label("O=C1C(Cl)=C(Nc2ccc(S(=O)(=O)Nc3ccccn3)cc2)C(=O)c2ccccc21")
"Satisfied"
>>> assigned_label("Cc1cc(NS(=O)(=O)c2ccc(NC3=C(Cl)C(=O)c4ccccc4C3=O)cc2)no1")
"Not satisfied"
>>> assigned_label("COc1cc(NC2=C(Cl)C(=O)c3ccccc3C2=O)ccc1S(=O)(=O)Nc1ccccc1C")
"Not satisfied"
>>> assigned_label("COc1ccccc1NS(=O)(=O)c1ccc(NC2=C(Cl)C(=O)c3ccccc3C2=O)cc1")
"Not satisfied"
>>> assigned_label("COc1ccc(NS(=O)(=O)c2ccc(NC3=C(Cl)C(=O)c4ccccc4C3=O)cc2OC)cc1")
"Not satisfied"

Query string: For `Cc1cccc(NS(=O)(=O)c2ccc(NC3=C(Cl)C(=O)c4ccccc4C3=O)cc2)c1` , is the recorded IC50 below the cut-off of 10 µM?
Result string: Not satisfied

Query string: For `COc1cccc(NS(=O)(=O)c2ccc(NC3=C(Cl)C(=O)c4ccccc4C3=O)cc2)c1` , is the recorded IC50 below the cut-off of 10 µM?
Result string: Not satisfied

Query string: For `Cc1noc(NS(=O)(=O)c2ccc(NC3=C(Cl)C(=O)c4ccccc4C3=O)cc2)c1C` , is the recorded IC50 below the cut-off of 10 µM?
Result string: Satisfied

----------
Experiment: Inhibition of chymotrypsin like proteolytic activity of rabbit 26S proteasome
Design: species or system Oryctolagus cuniculus
READOUT_LABEL: IC50
Put your answer as a value accompanied by its unit after it.

>>> result("O=C1C(Cl)=C(Nc2ccc(S(=O)(=O)Nc3nccs3)cc2)C(=O)c2ccccc21")
"3.3 µM"
>>> result("Cc1cc(C)nc(NS(=O)(=O)c2ccc(NC3=C(Cl)C(=O)c4ccccc4C3=O)cc2)n1")
"19 µM"

Query string: Fill in the blank: the reported IC50 of `Cc1nnc(NS(=O)(=O)c2ccc(NC3=C(Cl)C(=O)c4ccccc4C3=O)cc2)s1` is ____.
Result string: 6.4 µM

----------
Assay: Inhibition of trypsin like proteolytic activity of rabbit 26S proteasome
Design: species or system Oryctolagus cuniculus
READOUT_LABEL: pIC50
Remember the convention: pIC50 equals -log10 of concentration in molar.

>>> number("COc1cccc(NS(=O)(=O)c2ccc(NC3=C(Cl)C(=O)c4ccccc4C3=O)cc2)c1")
4.61
>>> number("Cc1cc(NS(=O)(=O)c2ccc(NC3=C(Cl)C(=O)c4ccccc4C3=O)cc2)no1")
4.88
>>> number("Cc1nnc(NS(=O)(=O)c2ccc(NC3=C(Cl)C(=O)c4ccccc4C3=O)cc2)s1")
4.97
>>> number("COc1ccc(NS(=O)(=O)c2ccc(NC3=C(Cl)C(=O)c4ccccc4C3=O)cc2OC)cc1")
4.63
>>> number("COc1cc(NC2=C(Cl)C(=O)c3ccccc3C2=O)ccc1S(=O)(=O)Nc1ccccc1C")
4.61

Query string: Fill in the blank: the reported pIC50 of `Cc1cccc(NS(=O)(=O)c2ccc(NC3=C(Cl)C(=O)c4ccccc4C3=O)cc2)c1` is ____.
Result string: 4.26

Query string: Fill in the blank: the reported pIC50 of `Cc1cc(C)nc(NS(=O)(=O)c2ccc(NC3=C(Cl)C(=O)c4ccccc4C3=O)cc2)n1` is ____.
Result string: 4.68

Ref: ChEMBL document CHEMBL1212844
